Reference for the values: PubChem BioAssay (EPA / NIEHS)

read-out: Cytochrome P450 2B6 (Homo sapiens) (UniProt P20813); assay: CLD_CYP2B6_6hr: CellzDirect (CLD) Gene Expression Assay for xenobiotic metabolism (CYP2B6) at 6 hours (AID 2283677);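 note: actives raise CYP2B6 transcript above DMSO baseline so AC50 marks an inducer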
Inconclusive results are not listed. Activity calls are given as the source filed them. Rule for the calls: active = hit-call score of the fitted dose curve at least 0.9, where 1 is the maximum; inconclusive = response in the unintended direction; inactive = score below 0.9.
Outcome codes: active, inactive

INSERT INTO measurements (compound, group) VALUES
  ('O=C(O)COc1nc(Cl)c(Cl)cc1Cl', 'inactive'),
  ('CCNc1nc(Cl)nc(NCC)n1', 'active'),
  ('COc1nc(C)nc(NC(=O)NS(=O)(=O)c2ccccc2Cl)n1', 'inactive'),
  ('CC1=C(C(=O)Nc2ccccc2)SCCO1', 'active'),
  ('CCOc1cc(Oc2ccc(C(F)(F)F)cc2Cl)ccc1[N+](=O)[O-]', 'active'),
  ('CC(C)Oc1cc(-n2nc(C(C)(C)C)oc2=O)c(Cl)cc1Cl', 'active'),
  ('Oc1ccccc1-c1ccccc1', 'inactive'),
  ('COc1ccc(C(c2ccc(OC)cc2)C(Cl)(Cl)Cl)cc1', 'active'),
  ('O=C(Nc1ccccc1)Nc1ccnc(Cl)c1', 'active'),
  ('CCc1nn(C)c(C(=O)NCc2ccc(C(C)(C)C)cc2)c1Cl', 'inactive'),
  ('CNC(=S)S', 'inactive'),
  ('Cc1c(F)c(F)c(COC(=O)C2C(/C=C(\Cl)C(F)(F)F)C2(C)C)c(F)c1F (stereo unspecified)', 'active'),
  ('CO/C=C(/C(=O)OC)c1ccccc1Oc1cc(Oc2ccccc2C#N)ncn1', 'active'),
  ('CC(Oc1ccc(Cl)cc1Cl)C(=O)O (stereo unspecified)', 'inactive'),
  ('O=C(O)c1nc(Cl)ccc1Cl', 'inactive'),
  ('CCOC(=O)CC(SP(=S)(OC)OC)C(=O)OCC (stereo unspecified)', 'inactive'),
  ('C=CCC1=C(C)[C@@H](OC(=O)[C@@H]2[C@@H](C=C(C)C)C2(C)C)CC1=O', 'active'),
  ('CCOC(=O)C(Cl)Cc1cc(-n2nc(C)n(C(F)F)c2=O)c(F)cc1Cl (stereo unspecified)', 'active'),
  ('N#CC(CCc1ccc(Cl)cc1)(Cn1cncn1)c1ccccc1 (stereo unspecified)', 'active'),
  ('N#Cc1cc(Br)c(O)c(Br)c1', 'inactive'),
  ('C=CCC1=C(C)C(OC(=O)C2C(C=C(C)C)C2(C)C)CC1=O (stereo unspecified)', 'active'),
  ('CCCC1COC(Cn2cncn2)(c2ccc(Cl)cc2Cl)O1 (stereo unspecified)', 'active'),
  ('CCCCOC(=O)c1ccccc1C(=O)OCCCC', 'inactive'),
  ('CCNc1nc(Cl)nc(NC(C)C)n1', 'active'),
  ('CNC(=O)ON=CC(C)(C)SC', 'inactive'),
  ('CON(C)C(=O)Nc1ccc(Cl)c(Cl)c1', 'active');
